- subject-of-test: FUS-RRM (Homo sapiens, UniProt P35637 282-374)
- Sequence (P35637 282-374): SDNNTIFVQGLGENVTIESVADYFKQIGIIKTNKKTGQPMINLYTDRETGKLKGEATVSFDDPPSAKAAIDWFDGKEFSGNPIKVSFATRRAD
- assay-info: ITC; average over three sequential sites; ITC: 10 mM HEPES pH 7.0, 20 mM Na2SO4 (+5 mM beta-mercaptoethanol for RRM-RanBP2 constructs), 298 K, 1 mM RNA into 100 uM protein. NMR: 20 mM Na phosphate pH 6.2, 25 mM NaCl, 5% D2O (RRM) or 25 mM Na2SO4, 5 mM beta-mercaptoethanol (TAF15-RRM-RanBP2), 298 K
- condition-context: protein: recombinant; hairpin, 8 bp stem, 9 nt loop
observation-type: pKd
pKd (log units): -log10 of the concentration in mol/L.

Reported pKd for CGUAUCUUUAACUACUCAAGAUACG (structured_RNA) [SON stem-loop RNA] : what is it?
4.96
